# Tested on: C57BL/6 mice given hANGPTL4-mFc
# Format: in vivo
# MEASUREMENT_CONDITIONS: antibody 5 mg/kg s.c.; 24 h later hANGPTL4-mFc 25 μg/mouse i.v.; bled 30 min after; mean±SEM
PROPERTY_NAME: NEFA-C (mg/dL)
Only the number, expressed in mg/dL, is required.

Lookup: Look up NEFA-C for this molecule: H1H292P: anti-hANGPTL4 antibody, HCVR/LCVR SEQ ID NOs 162/164 (antibody, V domains shown) VH: EVQLVESGGGLVQPGGSLRLSCVASGFTFSSYDMHWVRQLPGKGLEWVSAIGVAGDTYYPASVKGRFTISRENAKNSLYLQMNSLRAGDTAVYYCARGDSGNYYDGDYFDFWGQGTLVTVSS VL: DIQMTQSPSTLSASVGDRVTITCRASQSINRWLAWYQQKPGKAPKVLIYKASNLESGVPSRFSGSGSGTEFTLTISSLQPDDFATYYCQQYDSYFRTFGQGTKVEIK
Found: 1.06

Lookup: How about this molecule: H1H285P: anti-hANGPTL4 antibody, HCVR/LCVR SEQ ID NOs 114/116 (antibody, V domains shown) VH: EVQLVESGGGLVQPGGSLRLSCAASGFTFSRYDMHWVRQVTGKGLEWVSGIGTAGDTYYPGSVKGRFTISRENDKNSLYLQMNSLRVGDTAVYYCARGDSKNYYVGDYFDYWGQGTLVTVSS VL: DIQMTQSPSTLSASVGDRVTFTCRASHSIGNWLAWYQQKPGKAPKVLIYEASSLEDGVPSRFSGSGSGTEFTLTISSLQPDDFATYYCQQYDTYFRTFGQGTKVEIK
Found: 0.97
